- Target desc: T1, recombinant biotinylated CD71 extracellular domain (Sino Biologics) with an N-terminal 6His tag (human, UniProt P02786 89-760, biotinylated (site not stated))
- T1 construct: extracellular domain; also called hCD71; huCD71 ECD
- T1 sequence (P02786 other isoform, or with tags, fused parts or gaps): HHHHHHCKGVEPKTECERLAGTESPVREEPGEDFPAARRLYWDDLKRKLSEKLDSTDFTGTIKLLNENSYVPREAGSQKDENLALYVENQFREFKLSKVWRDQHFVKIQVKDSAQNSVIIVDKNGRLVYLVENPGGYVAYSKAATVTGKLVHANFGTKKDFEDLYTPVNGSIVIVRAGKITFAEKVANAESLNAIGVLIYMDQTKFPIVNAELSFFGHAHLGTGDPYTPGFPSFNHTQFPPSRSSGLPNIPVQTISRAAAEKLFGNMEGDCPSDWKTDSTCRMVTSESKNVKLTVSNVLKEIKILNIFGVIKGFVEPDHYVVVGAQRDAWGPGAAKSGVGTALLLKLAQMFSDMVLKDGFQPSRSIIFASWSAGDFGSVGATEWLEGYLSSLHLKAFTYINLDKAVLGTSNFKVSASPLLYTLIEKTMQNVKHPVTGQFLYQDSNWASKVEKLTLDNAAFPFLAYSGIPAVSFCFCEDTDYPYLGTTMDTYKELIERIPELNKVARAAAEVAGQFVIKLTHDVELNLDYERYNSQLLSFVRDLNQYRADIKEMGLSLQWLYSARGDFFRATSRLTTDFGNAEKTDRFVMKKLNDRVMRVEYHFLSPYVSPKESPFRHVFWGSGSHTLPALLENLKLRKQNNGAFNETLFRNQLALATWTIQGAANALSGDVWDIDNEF
- Experiment description: primary solution ELISA screen, signal on hCD71 over HSA
Value kind: hCD71:HSA

SEQ ID NO 1 (designed binder, not shown: small tags and cut ends, FN3 domain, hit of the apical domain panning) MLPAPKNLVVSRVTEDSARLSWTAPDAAFDSFPITYIEAVVLGEAIVLTVPGSERSYDLTGLKPGTEYPVGISGVKGGHNSMPLSAIFTT; 96

Problem: Query hCD71:HSA for SEQ ID NO 76 (designed binder, not shown: small tags and cut ends, FN3 domain, hit of the apical domain panning) MLPAPKNLVVSRVTEDSARLSWTAPDAAFDSFTIEYYENIGIGEAIVLTVPGSERSYDLTGLKPGTEYSVPIVGVKGGPYSHPLSAIFTT
Solution: 41

Problem: Query hCD71:HSA for SEQ ID NO 61 (designed binder, not shown: small tags and cut ends, FN3 domain, hit of the apical domain panning) MLPAPKNLVVSRVTEDSARLSWTAPDAAFDSFQIVYSELWIKGEAIVLTVPGSERSYDLTGLKPGTEYQVPIPGVKGGRNSFPLSAIFTT
Solution: 19

Problem: Query hCD71:HSA for SEQ ID NO 64 (designed binder, not shown: small tags and cut ends, FN3 domain, hit of the apical domain panning) MLPAPKNLVVSRVTEDSARLSWTAPDAAFDSFYIVYAEPIPNGEAIVLTVPGSERSYDLTGLKPGTEYSVLIHGVKGGRNSDPLSAIFTT
Solution: 218

Problem: Query hCD71:HSA for SEQ ID NO 7 (designed binder, not shown: small tags and cut ends, FN3 domain, hit of the apical domain panning) MLPAPKNLVVSDVTEDSARLSWQGVARAFDSFLITYREQIFAGEVIVLTVPGSERSYDLTGLKPGTEYPVWIQGVKGGSPSAPLSAEFTT
Solution: 29

Problem: Query hCD71:HSA for SEQ ID NO 46 (designed binder, not shown: small tags and cut ends, FN3 domain, hit of the apical domain panning) MLPAPKNLVVSRVTEDSARLSWTAPDAAFDSFIIPYAEVRPDGEAIVLTVPGSERSYDLTGLKPGTEYSVLIHGVKGGKLSLPLSAIFTT
Solution: 127

Problem: Query hCD71:HSA for SEQ ID NO 77 (designed binder, not shown: small tags and cut ends, FN3 domain, hit of the apical domain panning) MLPAPKNLVVSRVTEDSARLSWTAPDAAFDSFPIAYAEPRPDGEAIVLTVPGSERSYDLTGLKPGTEYSVLIHGVKGGLLSSPLSAIFTT
Solution: 71

Problem: Query hCD71:HSA for SEQ ID NO 6 (designed binder, not shown: small tags and cut ends, FN3 domain, hit of the apical domain panning) MLPAPKNLVVSRVTEDSARLSWTAPDAAFDSFPIIYMETFSRGEAIVLTVPGSERSYDLTGLKPGTEYRVPIGGVKGGSSSCPLSAIFTT
Solution: 43

Problem: Query hCD71:HSA for SEQ ID NO 99 (designed binder, not shown: small tags and cut ends, FN3 domain, hit of the apical domain panning) MLPAPKNLVVSRVTEDSARLSWTAPDAAFDSFFIPYAEPSPTGEAIVLTVPGSERSYDLTGLKPGTEYSVLIHGVKGGHLSDPLSVIFTT
Solution: 45
